Overview of recorded composite z-score for various compounds
tested on: XIP peptide (Xip251-270); assay: small-molecule binders of XIP peptide, primary screen, biochemical, small-molecule microarray, fluorescence 635/667 nm, 0.5 µg/mL protein (AID 1183); conditions: small-molecule microarray binding, fluorescence 635 nm; higher = more signal

Example entries and their recorded answers appear below.
{"compound": "COc1ccc([Si](C)(C)[C@H]2[C@H](CCO)O[C@@]3(C(=O)N(Cc4ccccc4)c4ccc(NC(=O)[C@H](C)O)cc43)[C@@H]2C)cc1", "testedSystem": "XIP peptide (Xip251-270)", "measureName": "composite z-score", "result": -0.313}
{"compound": "C=CCOC(=O)[C@@H]1[C@H]2C(=O)O[C@H](c3ccccc3)[C@H](c3ccccc3)N2[C@H](c2ccc(OCCOC(=O)[C@H]3C[C@H]4C(=O)N[C@@H](CCCCN(C)C)C(=O)N4[C@H]3c3cccc(OCCO)c3)cc2)[C@@]12C(=O)Nc1ccccc12", "testedSystem": "XIP peptide (Xip251-270)", "measureName": "composite z-score", "result": 0.686}
{"compound": "CCOC(=O)C1=CCC(c2ccncc2)N(S(=O)(=O)c2ccc(C)cc2)C1 (configuration not stated)", "testedSystem": "XIP peptide (Xip251-270)", "measureName": "composite z-score", "result": 0.835}
{"compound": "CN(C)CCCCNC(=O)[C@H]1C[C@H]2C(=O)N[C@@H](CCCCN(C)C)C(=O)N2[C@H]1c1ccc(O)cc1", "testedSystem": "XIP peptide (Xip251-270)", "measureName": "composite z-score", "result": 0.269}
{"compound": "C=C(C(=O)CC[C@@H](OC(=O)c1ccccc1-c1ccccc1C(=O)O)c1ccc(CO)o1)C(C)C", "testedSystem": "XIP peptide (Xip251-270)", "measureName": "composite z-score", "result": 0.434}

-- ask Give its composite z-score value. Item: CC1CC/C=C\[C@H]2OC34C=CCN(C(C)C)C(=O)[C@H]3N(C(C)CO)C(=O)[C@@H]4C2C(=O)O1 (some centres not stated)
-- reply 0.384

-- ask Give its composite z-score value. Item: CN1C(=O)C2C=CC(C(O)c3ccc([N+](=O)[O-])cc3)N(Nc3ccccc3)C2C1=O (configuration not stated)
-- reply 0.818

====

test system: Wnt5a (protein binding on small-molecule microarray); test: Wnt5a binders on small-molecule microarray, primary screen, biophysical, 635/667 nm fluorescence (AID 1142); settings: 635 nm fluorescence, higher = more signal;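 note: fluorescence read at 667 nm with signal to noise per printed feature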
measureName: composite z-score

{"compoundStructureString": "C=C(/C=C\\CNS(=O)(=O)c1ccc(C)cc1)[C@H](O)[C@H]1CCCN1S(=O)(=O)c1ccccc1[N+](=O)[O-]", "composite z-score": 0.0313}
{"compoundStructureString": "CN(C)CCCCNC(=O)[C@H]1C[C@H]2C(=O)N[C@@H](CCCCN(C)C)C(=O)N2[C@H]1c1ccc(O)cc1", "composite z-score": 0.215}

-- ask Give its composite z-score value. Item: COC(=O)[C@@]1(Cc2ccc(F)cc2)[C@H]2c3cc(C(=O)N4CCCC4)n(CCc4c[nH]c5cc(F)ccc45)c3C[C@H]2CN1C(=O)c1ccccc1
-- reply 1.43

-- ask Give its composite z-score value. Item: Cc1ccc(S[C@]2(C(=O)NCC(C)C)CC(=O)N(C(C)C)[C@@H]2c2ccc(CO)cc2I)cc1
-- reply 0.241

Hello, the source for this data is PubChem BioAssay, in case you need it.
